B1: glmS ribozyme (parent)
chain: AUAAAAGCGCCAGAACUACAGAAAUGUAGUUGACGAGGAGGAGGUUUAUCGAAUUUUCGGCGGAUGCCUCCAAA

- Variants of: B1
- PROCEDURE_DETAILS: self-cleavage kobs at 2500 uM GlcN6P; higher = faster cleavage; RNA array
- CONDITION: with glucosamine-6-phosphate
Variants at the floor of the assay were thinned out.
Where self-cleavage kobs at 2500 uM GlcN6P equals or exceeds 0.0001 s⁻¹, the correct label is Y; where it does not, the label is N.

Example entries begin here.
>  <MUTATION_NAME>
G32C C58G

>  <LABEL_VALUE>
N

$$$$
>  <MUTATION_NAME>
G9C C50U U55G

>  <LABEL_VALUE>
N

$$$$
>  <MUTATION_NAME>
G40U G66U C67U

>  <LABEL_VALUE>
N

$$$$

Prompt line: hey, is self-cleavage kobs at 2500 uM GlcN6P for this one >= 0.0001 s⁻¹? A14C U31G A64C
Response line: N

Prompt line: Please answer likewise for A6U C71A
Response line: N

Prompt line: Same thing, different variant: G41A U54C
Response line: Y

Prompt line: Try this variant next: A36C G44A
Response line: N

Prompt line: Now give it for C34A U55A too.
Response line: N

Prompt line: Same question for U30C C70U please.
Response line: Y

Prompt line: Check A42U C67U too.
Response line: Y

Prompt line: Entry G9U G41U please
Response line: N
